Sourced from ChEMBL document CHEMBL3621058

# TEST: Inhibition of V-ATPase (unknown origin)
# Parameters: species or system Homo sapiens
MEASURE NAME: IC50

Report IC50 for CC/C=C\C=C/C(=O)N/C=C/C[C@H]1C[C@@H](O)[C@@H](C)C/C=C/Cc2cccc(O)c2C(=O)O1 [SALICYLIHALAMIDE A] please. < 1 nM

----------
# TEST: Inhibition of purified reconstituted bovine brain V-ATPase
# Design: species or system Bos taurus
Assign IC50 to each entry below.
Answers are plain numbers, in nM.

The examples below pair each entry with its known result.
COMPOUND	UNITS	IC50
Nc1cccc2c1C(=O)O[C@@H](C/C=C/NC(=O)C#Cc1ccccc1)C[C@@H](O)CC/C=C/C2	nM	300
O=C(C#Cc1ccccc1)N/C=C/C[C@H]1C[C@@H](O)CC/C=C/Cc2cccc(O)c2C(=O)N1	nM	3
O=C(C#Cc1ccccc1)N/C=C/C[C@H]1C[C@@H](O)CC/C=C/Cc2cccc(F)c2C(=O)O1	nM	1000
O=C(C#Cc1ccccc1)N/C=C/C[C@H]1C[C@@H](O)CC/C=C/Cc2cccc(O)c2C(=O)O1	nM	5
O=C(C#Cc1ccccc1)N/C=C/C[C@H]1C[C@@H](O)CC/C=C/Cc2cc(F)ccc2C(=O)O1	nM	500
O=C(C#Cc1ccccc1)N/C=C/C[C@H]1C[C@@H](O)CC/C=C/Cc2cccc([N+](=O)[O-])c2C(=O)O1	nM	1000
O=C(C#Cc1ccccc1)N/C=C/C[C@H]1C[C@@H](O)CC/C=C/Cc2cc([N+](=O)[O-])ccc2C(=O)O1	nM	300
O=C(C#Cc1ccccc1)N/C=C/C[C@H]1C[C@@H](O)CC/C=C/Cc2cccc(C(F)F)c2C(=O)O1	nM	500

Below: the item to evaluate.
Report IC50 for C[C@H]1C/C=C/Cc2cccc(O)c2C(=O)O[C@@H](C/C=C/NC(=O)C#Cc2ccccc2)C[C@H]1O [SALIPHENYLHALAMIDE] please. 1
